In this section, each of the molecules is paired with its reported inhibition.
molecular target: Large T antigen (Simian virus 40) (UniProt P03070); assay: SV40 large T antigen inhibitors, biochemical (AID 1903); conditions: SV40 large T antigen ATPase/helicase inhibition assay; at 20 µM; active compounds read high
Sequence (P03070 whole entry, looked up): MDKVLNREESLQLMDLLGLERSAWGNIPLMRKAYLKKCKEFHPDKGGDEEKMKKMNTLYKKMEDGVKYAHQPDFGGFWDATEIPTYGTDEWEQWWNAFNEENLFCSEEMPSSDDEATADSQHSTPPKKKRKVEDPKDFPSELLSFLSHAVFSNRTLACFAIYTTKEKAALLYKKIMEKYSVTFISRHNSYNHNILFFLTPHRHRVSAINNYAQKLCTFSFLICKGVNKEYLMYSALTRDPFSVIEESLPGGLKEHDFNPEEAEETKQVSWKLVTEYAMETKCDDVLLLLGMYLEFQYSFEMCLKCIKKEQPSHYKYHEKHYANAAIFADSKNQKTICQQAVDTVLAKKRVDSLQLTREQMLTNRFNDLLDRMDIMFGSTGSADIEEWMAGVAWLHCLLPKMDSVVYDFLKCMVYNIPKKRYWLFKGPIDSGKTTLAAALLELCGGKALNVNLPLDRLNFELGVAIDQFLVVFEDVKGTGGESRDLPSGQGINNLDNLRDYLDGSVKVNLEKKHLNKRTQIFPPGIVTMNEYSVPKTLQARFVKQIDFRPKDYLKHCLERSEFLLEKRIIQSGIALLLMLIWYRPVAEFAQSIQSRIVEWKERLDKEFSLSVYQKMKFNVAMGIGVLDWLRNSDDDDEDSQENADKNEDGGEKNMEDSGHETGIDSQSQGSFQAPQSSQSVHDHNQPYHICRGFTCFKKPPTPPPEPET
Out of some 310,000 compounds screened, about 1,200 (0.39%) were called active. Not all results are given here. Potency and affinity values are given separately.
Value expressed in %; do not type the unit.

Molecule	Target entity	Endpoint	Value observed
CCCc1nc2ccccc2c(=O)n1/N=C/c1ccccc1O	Large T antigen (Simian virus 40) (UniProt P03070)	inhibition	-9.27
CCCc1nc2ccccc2c(=O)n1/N=C/c1ccc(O)cc1	Large T antigen (Simian virus 40) (UniProt P03070)	inhibition	6.26
CCOc1ccc(NS(=O)(=O)c2ccc(N)cc2)cc1	Large T antigen (Simian virus 40) (UniProt P03070)	inhibition	2.32

Exam item: GET /values?readout=inhibition&item= C=CCN1C(=O)C(Cc2ccccc2)SC1=Nc1ccc(C(=O)O)cc1 (stereo unspecified)
Marked response: 25.5

Exam item: Can you handle Cc1ccc(-n2nc3c(=O)n(CC(=O)NCc4ccccc4Cl)nc(C)c3c2C)cc1 next?
Marked response: 10.3

Exam item: Further, for O=C(COc1ccc(N2CC(C(=O)O)CC2=O)cc1)Nc1cccc(C(F)(F)F)c1 (stereo unspecified) ?
Marked response: -0.75

###

target: Large T antigen (Simian virus 40); assay: SV40 large T antigen inhibitors, biochemical (AID 1903); settings: SV40 large T antigen ATPase/helicase inhibition assay; at 20 µM; active compounds read high
Hit rate of the full screen: of about 310,000 compounds, about 1,200 (0.39%) were called active. A selection follows. Entries with a potency or affinity are not part of this list.
Property: inhibition; scope: individual compounds
Just the number in %, nothing appended.

Compound	inhibition (%)
COc1cc(/C=N/NC(=S)Nc2cccc(C(=O)O)c2)cc(OC)c1OC	5.01

Exam item: Any idea what inhibition came out for O=C(NCC1CCCO1)C1CCN(C2CCN(C3CCCCCC3)CC2)CC1 (stereo unspecified) on Large T antigen (Simian virus 40)?
Marked response: 6.53

Exam item: # repeat for O=C(CNC(=O)c1cccc(F)c1)N/N=C/c1cccc([N+](=O)[O-])c1
Marked response: 16.8

Exam item: Field entry: Cn1nc(C(=O)Nc2ccc(S(=O)(=O)N3CCCC3)cc2)ccc1=O
Marked response: 0.66

###

target: Large T antigen (Simian virus 40) (UniProt P03070); assay: SV40 large T antigen inhibitors, biochemical (AID 1903); conditions: SV40 large T antigen ATPase/helicase inhibition assay; at 20 µM; active compounds read high
Hit rate of the full screen: of about 310,000 compounds, about 1,200 (0.39%) were called active. These entries were drawn from the full list. Results with a measured potency or affinity are listed apart.
Endpoint: inhibition (%)
Output spec: scalar in %, unitless text.

Compound	Target entity	Endpoint	Unit text	Value observed
O=[N+]([O-])c1ccc(N2CCOCC2)cn1	Large T antigen (Simian virus 40) (UniProt P03070)	inhibition	%	20.2
C/C(=N\Nc1ccc(C(=O)O)cc1)c1ccc(S(=O)(=O)NCc2ccco2)cc1	Large T antigen (Simian virus 40) (UniProt P03070)	inhibition	%	11
COc1ccc(-c2csc(NC(=O)CN3C(=O)NC4(CCCC4)C3=O)n2)cc1OC	Large T antigen (Simian virus 40) (UniProt P03070)	inhibition	%	23.8
CCc1ccccc1NC(=O)C1CCCN(c2ncnc3onc(-c4ccc(F)cc4)c23)C1 (stereo not drawn)	Large T antigen (Simian virus 40) (UniProt P03070)	inhibition	%	4.3
CC(C)(C)c1cc(N)n(-c2ccc(C(=O)O)cc2)n1	Large T antigen (Simian virus 40) (UniProt P03070)	inhibition	%	11.4
O=C(NCc1ccco1)C1CC(=O)N(c2ccc(F)cc2)C1 (stereo not drawn)	Large T antigen (Simian virus 40) (UniProt P03070)	inhibition	%	9.04
CCOc1ccc(CNC(=S)N/N=C/c2ccc(OC)c(OC)c2)cc1	Large T antigen (Simian virus 40) (UniProt P03070)	inhibition	%	9.25
CCOC(=O)c1c(NC(=O)COC(=O)c2nc(Cl)ccc2Cl)sc(C(=O)N(C)C)c1C	Large T antigen (Simian virus 40) (UniProt P03070)	inhibition	%	3.76

Exam item: Given CCCc1nc(-c2ccccc2)c(-c2ccc(OC)c(OC)c2)c(=O)[nH]1 , state its recorded inhibition.
Marked response: 3.66

Exam item: And then Cc1cc(NC(=O)CSc2nc(N)c(NC(=O)c3ccc(F)c(F)c3)c(=O)[nH]2)no1 , what is it?
Marked response: 5.69

Exam item: Now try O=[N+]([O-])c1ccc(N2CCCCC2)cn1 .
Marked response: 4.49

Exam item: Can you handle O=[N+]([O-])c1cc(S(=O)(=O)Nc2ccccc2)ccc1N1CCN(c2ccc(O)cc2)CC1 next?
Marked response: 17.3

Exam item: Another compound: CN1CCN(c2ccc(S(=O)(=O)N3CCCCC3)cc2[N+](=O)[O-])CC1
Marked response: 23.6

Exam item: Now the same for NS(=O)(=O)c1cc(C(=O)OCC(=O)c2ccccc2)c(Cl)cc1Cl
Marked response: 2.42

Exam item: Repeat for the following compound: Cn1c(Oc2ccc(Cl)c3cccnc23)nc2c1c(=O)n(Cc1ccccc1Cl)c(=O)n2C
Marked response: 5.38

Exam item: Moving on to the next compound: CN(C)/C=C(\C#N)C(=O)Nc1ccc(F)cc1
Marked response: -1.08

Exam item: Same read-out for COc1ccc(CNC(=S)N/N=C/c2ccc(OC)c(OC)c2)cc1 ?
Marked response: 4.58

Exam item: Now the compound CC(=O)c1sc(NC(=O)COc2ccccc2)nc1C
Marked response: 3.21

Exam item: // repeat for Oc1cccc(/C=N/NC(=S)NCCN2CCOCC2)c1O and report
Marked response: 50.5

Exam item: Can you handle O=C(NCc1ccco1)C1CC(=O)N(c2ccc(Cl)cc2)C1 (stereo not drawn) next?
Marked response: -4.21

Exam item: Proceed to COCCCNC(=S)N/N=C/c1ccccc1O
Marked response: 12.5

Exam item: Repeat for the following compound: S=C(NCCN1CCOCC1)N/N=C/c1ccccc1
Marked response: 2.2

Exam item: Please give the result for O=S1(=O)N=C(N(CCO)/N=C/c2ccccc2)c2ccccc21 too.
Marked response: -0.93

###

biological target: Large T antigen (Simian virus 40) (UniProt P03070); experiment: SV40 large T antigen inhibitors, biochemical (AID 1903); settings: SV40 large T antigen ATPase/helicase inhibition assay; at 20 µM; active compounds read high
The whole screen tested about 310,000 compounds, of which about 1,200 (0.39%) were called active. The list is a sample of the results. Results with a measured potency or affinity are listed apart.
Recorded measurements of inhibition, one per entry
Numeric answer only, unit % assumed.

Take a look at these entries with their results.
Compound	Unit text	Value observed
O=C(N/N=C(\c1ccccc1)c1cccnc1)c1ccc(O)cc1	%	14.2
Cc1ccc(O)c(Sc2cc(C)ccc2O)c1	%	5.68
N#Cc1ccsc1NC(=O)CN1CCN(S(=O)(=O)c2ccc3ccccc3c2)CC1	%	-5.22
O=C(CCc1c[nH]c2ccccc12)OCC(=O)N1CCN(S(=O)(=O)c2ccccc2)CC1	%	10.9
O=C1c2cccnc2C(=O)N1Cc1ccc(S(=O)(=O)NCc2ccco2)cc1	%	14.4
O=C(c1ccncc1)N1CCN(C(=O)c2ccco2)CC1	%	6.56
Cn1c(=O)n(Cc2ccccc2F)c2ccccc21	%	9.44
O=C(CC(=O)N/N=C/c1ccc(F)cc1)N/N=C/c1ccc(F)cc1	%	10.6
O=C(CCn1c(=S)[nH]c2ccccc2c1=O)NCCc1ccccc1	%	4.97
O=C(N/N=C/c1cccc(O)c1)c1csc2ccccc12	%	9.57

Exam item: Reported inhibition, compound Cc1cc(N2CCOCC2)nc2ccc(NC(=S)NC(C)C)cc12 : ____
Marked response: 4.55

Exam item: Please give the result for NS(=O)(=O)c1ccc(N/N=C/c2ccccn2)c([N+](=O)[O-])c1 too.
Marked response: 9

Exam item: Cool, now O=C(Nc1ccc(Cl)cc1Cl)c1ccc(-c2ccccc2)cc1
Marked response: 3.2

Exam item: Moving on to O=C(CCn1cnc2ccccc21)N/N=C/c1ccccc1O
Marked response: 14.7

Exam item: Now this one: COc1ccc(/C=N/NC(=O)CC(=O)N/N=C/c2ccc(OC)cc2)cc1
Marked response: -38

Exam item: Entry Cc1ccc(S(=O)(=O)N2CCCC(c3nc(-c4ccc(C)o4)no3)C2)cc1 (stereo not drawn) please
Marked response: 6.08

###

biological target: Large T antigen (Simian virus 40); experiment: SV40 large T antigen inhibitors, biochemical (AID 1903); settings: SV40 large T antigen ATPase/helicase inhibition assay; at 20 µM; active compounds read high
The campaign covered roughly 310,000 compounds. About 1,200 (0.39%) were called active. Only a sample is shown. Measured potencies and affinities stand elsewhere.
Rule: Criterion met for inhibition not less than 10%, Criterion not met for anything less.

Example entries begin here.
Compound	Class label
CCCCn1c(N)c(N(CCC(C)C)C(=O)c2cc(-c3ccco3)nc3ccccc23)c(=O)[nH]c1=O	Criterion met
COc1ccc(CCNC(=O)C/C(C)=N/NC(=O)C23CC4CC(CC(C4)C2)C3)cc1OC	Criterion not met
O=C(CN1C(=O)S/C(=C\c2cccs2)C1=O)Nc1ccc(C(=O)O)c(O)c1	Criterion met
COc1cc(/C=N/NC(=O)C2c3ccccc3Oc3ccccc32)ccc1O	Criterion met
COc1ccccc1N1CCN(CC(O)c2ccccc2)CC1 (stereo not given)	Criterion not met
COc1cc(/C=N/NC(=O)NC23CC4CC(CC(C4)C2)C3)ccc1O	Criterion met

Exam item: Is inhibition at least 10%? Consider CC1CC(=O)C2=C(C1)Nc1ccccc1N(C(=O)COc1ccccc1)C2c1ccco1 (stereo not given)
Marked response: Criterion not met

Exam item: Again, but for O=C(CCCN1C(=O)/C(=C/c2ccccc2)SC1=S)Nc1ccc(C(=O)O)c(O)c1
Marked response: Criterion met

Exam item: Another compound: COc1ccc2c(c1)-c1nc(/N=C/c3ccc(O)cc3)sc1CC2
Marked response: Criterion met

Exam item: Same read-out for CCN(c1ccccc1)S(=O)(=O)c1cc(CN2C(=O)c3cccnc3C2=O)ccc1OC ?
Marked response: Criterion met
